This section presents binders with their documented IC99 values.
TARGET_ENTITY: Human SARS-CoV-2_Wuhan S (SmT1) (SARS-CoV-2 (Wuhan), UniProt P0DTC2 14-1208)
ASSAY_EXPLANATION: flow cytometry SVNA, VHH-Fc vs biotin-S binding to Vero E6 ACE2
// units = nM; emit number, no label

Some binders with recorded IC99:
| BINDER | IC99, nM |
| --- | --- |
| NRCoV2-07 VHH-Fc (Fc fusion, bivalent VHH-Fc) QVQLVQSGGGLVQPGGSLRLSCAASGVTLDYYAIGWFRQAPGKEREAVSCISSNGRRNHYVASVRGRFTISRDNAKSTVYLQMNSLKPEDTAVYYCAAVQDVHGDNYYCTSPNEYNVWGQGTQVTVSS | 98.9 |
| NRCoV2-11a VHH-Fc (Fc fusion, bivalent VHH-Fc) EVQLQQSGGGLVQPGGSLRLSCAASGFTLDSYNIAWFRQAPGKEREWISYISRYYESTYYSDSVKGRFTTSRDGDKKTVSLQMNSLKSEDTAVYYCAARSRDFSSPISATDKYGSWGQGTQVTVSS | 67.6 |
| NRCoV2-10 VHH-Fc (Fc fusion, bivalent VHH-Fc) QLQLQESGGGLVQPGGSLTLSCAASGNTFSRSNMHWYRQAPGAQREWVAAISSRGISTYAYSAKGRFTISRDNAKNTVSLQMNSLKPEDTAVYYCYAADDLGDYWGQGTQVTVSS | 77.3 |

Report IC99 for NRCoV2-MRed04 VHH-Fc (Fc fusion, bivalent VHH-Fc) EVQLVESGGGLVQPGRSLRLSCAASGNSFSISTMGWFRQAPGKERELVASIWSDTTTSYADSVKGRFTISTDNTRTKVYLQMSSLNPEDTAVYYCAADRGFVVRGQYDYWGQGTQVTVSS please. 262
